Form field: LD50 2SM Eggs (one value per entry).
Test system: Two-Spotted Mite [Tetranychus urticae (Koch)]
Assay: Two-Spotted Mite (2SM) plant dip assay, mortality seven days later
Assay type: in vivo
Details: eggs (nymphs hatching after treatment)

Compound	LD50 2SM Eggs
CCOC(=O)N1CCN(C(=O)CSP(=S)(OCC)OCC)C(C)C1 (stereo not shown)	.006%

q: Tell us which LD50 2SM Eggs value is on record for CCOP(=O)(OCC)SCC(=O)N1CCN(C(=O)SC)CC1
a: < .05%

q: Tell us which LD50 2SM Eggs value is on record for CCOP(=S)(OCC)SCC(=O)N1CCN(C(=O)OC(C)C)CC1
a: < .05%

q: Tell us which LD50 2SM Eggs value is on record for CCOC(=O)N1CCN(C(=O)CSP(=O)(OCC)OCC)C(C)C1 (stereo not shown)
a: < .05%

q: Tell us which LD50 2SM Eggs value is on record for CCOC(=O)N1CCN(C(=O)CSP(=S)(OCC)OCC)CC1
a: .002%

---

Tested on: Two-Spotted Mite [Tetranychus urticae (Koch)]
Assay: Two-Spotted Mite (2SM) plant dip assay, mortality seven days later
Format: in vivo
Conditions: eggs (nymphs hatching after treatment)
Form field: LD50 2SM Eggs (one value per entry).

Example cases with answers are listed next.
Molecule	Result
CCOP(=O)(OCC)SCC(=O)N1CCN(C(=O)OC(C)C)CC1	< .05%
CCOC(=O)N1CCN(C(=O)CSP(=S)(OC)OC)CC1	.005%
COP(=S)(OC)SCC(=O)N1CCN(C(=O)OC(C)C)CC1	< .05%
CCOP(=S)(OCC)SCC(=O)N1CCN(C(=O)OC)CC1	< .05%
CCOP(=S)(OCC)SCC(=O)N1CCN(C(=O)Oc2ccccc2)CC1	< .05%

q: Tell us which LD50 2SM Eggs value is on record for CCOC(=O)N1CCN(C(=O)CSP(=S)(OC)OC)C(C)C1 (centres unmarked)
a: < .05%

q: Tell us which LD50 2SM Eggs value is on record for CCOP(=S)(OCC)SCC(=O)N1CCN(C(=O)SC)CC1
a: < .05%

q: Tell us which LD50 2SM Eggs value is on record for COP(=S)(OC)SCC(=O)N1CCN(C(=O)SC(C)(C)C)CC1C (centres unmarked)
a: > .05%

The values you see were collected from patent US4225595A.
